Tested on: PPARa:RXRa (NR concentration 270 nM, RXRa partner concentration 90 nM)
ASSAY PROTOCOL: PBM binding z-score (relative to random genomic background probes); higher = stronger binding; sequences stand for … in GC…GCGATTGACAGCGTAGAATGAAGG
Output: class label from PBM binding z-score. Mapping: low: < 0.01; moderate: ≥ 0.01 and < 2; high: ≥ 2

Use these answered entries as a reference point.
> print(dat)
                     sequence.content                              assay.target  assigned.label
1  CGAACTAGGTCATCCACGACAGTGAATACATTGA  PPARa:RXRa (NR concentration 270 nM, RXRa partner concentration 90 nM)            high
2  AATACTGGGTCATCGTAGGCCAGAGTACGCACAG  PPARa:RXRa (NR concentration 270 nM, RXRa partner concentration 90 nM)            high
3  CGAACGAGGGCGTGAGTTGATAGCAAATGCCGAT  PPARa:RXRa (NR concentration 270 nM, RXRa partner concentration 90 nM)        moderate

Here is another sequence to look at.
# input Textbook exercise: identify the category of the sequence given here, TCATTTAGGTAAAGGTGAAAGTCGAACGATATGA , according to its measured value.
# output high

---

Test system: THRa homodimer (NR concentration 90 nM)
ASSAY PROTOCOL: PBM binding z-score (relative to random genomic background probes); higher = stronger binding; sequences stand for … in GC…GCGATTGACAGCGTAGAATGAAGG
MEASURED PROPERTY: PBM binding z-score
Numbers only.

# count of solved cases: 5
> print(dat)
                     sequence.content  observed.result
1  CCTAGCAGGGCAGGGTCACTCAAGCATTTCGCTT            0.567
2  CGTGCTAGGTCATGGTCAGCTAATCTACAGTATG              1.2
3  TCGAGTAGGTAAGTCGGGGCATTCAGCCAACATA           -0.297
4  GCTGCTAGGTCAGGTTGGTCAGCAAACGGGTACG            0.409
5  CGTCCAAGGTCAAGTTCAGTGAAAGAGACTCGAA             2.87

# input Request the reported PBM binding z-score associated with GGTTGTAGATCAAGGTTAAGAAAGACTAAGCTAA
# output 0.54

---

System: PPARg:RXRa 270nM:90nM, anti-RXR (NR concentration 270 nM, RXRa partner concentration 90 nM)
ASSAY PROTOCOL: PBM binding z-score (relative to random genomic background probes); higher = stronger binding; sequences stand for … in GC…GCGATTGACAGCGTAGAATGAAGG
Output: class label from PBM binding z-score. Mapping: bucket A (below 0.8), bucket B (0.8 to below 4), bucket C (4 or more)

> print(dat)
                     sequence.content  assigned.label
1  ACTCGGAGGACAAAGGTCAGCGCTACGCCAGTGA        bucket C
2  CCTAGCAAGCCAGGGTCACTCAAGCATTTCGCTT        bucket B
3  ATATATAGGTTAAGGGTCATTCAGGTTGGTTCGC        bucket C
4  TCTTGTAGATCAAAGGTTAGGAAAGCCGAAGCCT        bucket C
5  AACGAAAGGTCGAGGTGAGTATAGAGAAAGGGAA        bucket B
6  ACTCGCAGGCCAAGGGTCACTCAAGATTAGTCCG        bucket C
7  CCTAGTTGGTCAAGTTCACACACGCTATAGGTAC        bucket B
8  ATCGACAGGTCGACGAGGTGAGTATACACCGTTT        bucket A

# input Textbook exercise: identify the category of the sequence given here, CGTCCAAGGTCAGAGGAGGTCAGTGAAGACAGAT , according to its measured value.
# output bucket B

---

System: THRa homodimer (NR concentration 90 nM)
ASSAY PROTOCOL: PBM binding z-score (relative to random genomic background probes); higher = stronger binding; sequences stand for … in GC…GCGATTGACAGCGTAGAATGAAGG
Output: class label from PBM binding z-score. Mapping: low range: < 0.3; mid range: ≥ 0.3 and < 2; high range: ≥ 2

Use these answered entries as a reference point.
> print(dat)
                     sequence.content                             assay.target  assigned.label
1  CCTACTGGGCCAACGTCATTGATCAGTCAAAGCA  THRa homodimer (NR concentration 90 nM)       low range
2  TCTATTATTTGATTAGGGCAACCGAAACAGCGGA  THRa homodimer (NR concentration 90 nM)       mid range
3  TCTTGTAGATCAATAGAGGTGAAGAAAGTGCGCT  THRa homodimer (NR concentration 90 nM)       low range
4  CGTCAATGTTCAAGGTAACGTAACAGAAAGCAGC  THRa homodimer (NR concentration 90 nM)       mid range
5  CAAACTAGGTCACCGGAAGGTCAAAGACCGCATG  THRa homodimer (NR concentration 90 nM)      high range
6  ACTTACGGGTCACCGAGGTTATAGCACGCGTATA  THRa homodimer (NR concentration 90 nM)       mid range
7  GCTAGCGGGCCATTTGGGTCACTCAATGACGGGC  THRa homodimer (NR concentration 90 nM)       low range
8  CCTAGTTGGTTAAGGTCACACACGCTATAGGTAC  THRa homodimer (NR concentration 90 nM)      high range

# input Textbook exercise: identify the category of the sequence given here, TTACCAAGGTGAAAGGTAGTTGATGCACGCCTTG , according to its measured value.
# output mid range

# input Textbook exercise: identify the category of the sequence given here, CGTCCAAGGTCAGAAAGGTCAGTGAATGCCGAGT , according to its measured value.
# output high range

# input Textbook exercise: identify the category of the sequence given here, CCTCGGAGGACAGAAGGTCACAGCTGTCCGCTTT , according to its measured value.
# output mid range

# input Textbook exercise: identify the category of the sequence given here, CGTCCAAGGTCAAGGTCAGTGTAAGAGACTCGAA , according to its measured value.
# output high range

---

System: LXRa:RXRa (NR concentration 270 nM, RXRa partner concentration 90 nM)
ASSAY PROTOCOL: PBM binding z-score (relative to random genomic background probes); higher = stronger binding; sequences stand for … in GC…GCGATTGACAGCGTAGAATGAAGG
MEASURED PROPERTY: PBM binding z-score
Give bare numbers.

> print(dat)
                     sequence.content  observed.result
1  TAGCGTAGGTCATTGGGCCAGTATAGTACGCATC             3.92
2  GTACCAAGGTGAATACGTCGTTGATGAGTAGGCG          -0.0604
3  TCGAGTAGTTTAGGGGCATTCAGAATGGCGTCGA            0.048

Please supply PBM binding z-score for each of the following items, keeping them in order.
1. CTACCAAGGTGAAAAAGGTCGTTGATTACTATTC
2. ATCGAAAGGTCGAAGCTGAGTATACCCACCCGAA
3. CCGGACAGGTGAAAGGTAACTCAGTCTGGTACGC
4. ATCTCTAGGTAAAAGTTCGGTGAATCCCGAGGAT
5. TCATATAGGTAAAAGGTGAACGTCGGTGTGGTAA
6. TCCGCTAGGTCAGTTGGTCAGCTAACGAGCTGCC
7. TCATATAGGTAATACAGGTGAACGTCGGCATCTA
8. ATCGAAAAGTCGACGAGGTGAGTATACACCGTTT

# output
1. 1.45
2. 3.6
3. 0.472
4. 0.141
5. 2
6. 0.833
7. 1.09
8. -0.0396

Please supply PBM binding z-score for each of the following items, keeping them in order.
1. GCATATAGGTAAGACAAGGTGAAAGTCCGATTGT
2. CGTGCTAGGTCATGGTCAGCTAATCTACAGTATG
3. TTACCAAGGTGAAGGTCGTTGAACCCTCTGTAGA
4. AGCATGAGGTTAAGATCAGGGAAACAGAATACAT

# output
1: -0.0572; 2: 2.46; 3: 3.95; 4: 2.02

Please supply PBM binding z-score for each of the following items, keeping them in order.
1. CCTAGCAGGCCGGGGTCACTCAAGCATTTCGCTT
2. GCTCGGACGACAAGGTCAGAGCTTTGTCCGTAGA
3. CAAACTAGGTCATCGGAAGGTCAAAGTCCGCATG

# output
1: 3.63; 2: 1.19; 3: 5.83

Please supply PBM binding z-score for each of the following items, keeping them in order.
1. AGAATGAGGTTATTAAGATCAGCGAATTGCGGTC
2. GATACAGGGTCAGCTAGAGGCCATAGTATGGAAA
3. TTACCAAGGTGAAAGGTGGTTGATGCACGCCTTG
4. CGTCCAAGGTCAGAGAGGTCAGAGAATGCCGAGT

# output
1. 1.23
2. 3.04
3. 0.449
4. 5.34

Please supply PBM binding z-score for each of the following items, keeping them in order.
1. AGAATGAGGTTATTAAGAACAGGGAATTGCGGTC
2. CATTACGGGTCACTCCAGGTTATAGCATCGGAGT
3. GCTAGCAGGCCATTAGGGTCACTCAATGACGGGC
4. TCTTGTAGATCAATAGAGGTTAAGAACGTGCGCT
5. CGTCAAAGTTCGACTAAGGTAACGTAAAGCACGC
6. TCTTGTAGATCAGCAGGTTATGAAAGCTGGCCAA

# output
1. 1.45
2. 7.54
3. 1.35
4. 2.59
5. 1.33
6. 0.0807

Please supply PBM binding z-score for each of the following items, keeping them in order.
1. CCTCGGAGGACAGAAGGTGAGAGCTGTCCGCTTT
2. TCATCTAGGTAAAGGTGAAAGTCGAACGATATGA
3. CTTCCAAGGTCAGAGAGGTCAGTGAATGCCGAGT
4. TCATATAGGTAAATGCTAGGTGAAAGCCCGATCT

# output
1. 0.159
2. 1.5
3. 5.16
4. 0.754

Please supply PBM binding z-score for each of the following items, keeping them in order.
1. AGAATGTGGTTAAGATCAGGGAAACAGAATACAT
2. CCTAGTCGGTCAGGAGGTCACACACCGGATATGA
3. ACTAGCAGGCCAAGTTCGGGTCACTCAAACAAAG
4. TGTCAAAGTTCAAAGCTAACGTAAGTATCCACAC
5. CCTATCAGGCCAATCTGGGTCACTCAAGGCTTGA
6. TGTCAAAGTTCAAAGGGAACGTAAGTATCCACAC

# output
1. -0.14
2. 4
3. 1.28
4. 6.15
5. 1.71
6. 6.18

Please supply PBM binding z-score for each of the following items, keeping them in order.
1. CGTCACAGTTCAACTAAGGTAACGTAAAGCACGC
2. CGAACTAGGTCAAGGACAGTGACTCTCCGCACGC

# output
1. 3.37
2. 2.28

Numbers sourced from the supplement of paper PMC6555819.
